- Test system: Fibroblast
- method: Multiplex assay against human fibroblast
- Type: toxicity, cell-based
- test_context: 12 h, 10 µM, compound concentration 10 uM, replicate 2
Lab note: anything with Population Membrane Permeable-Phenotype (%) below 3% is marked rule met; values at 3% or higher are marked rule not met.

Here's what some known entries look like.
* COc1cc2c(Nc3ccc(NC(=O)c4ccccc4)cc3)ncnc2cc1OCCCN1CCOCC1 | rule met
* Cl.Cl.NC1(c2ccc(-c3nc4ccn5c(=O)[nH]nc5c4cc3-c3ccccc3)cc2)CCC1 | rule met

Q: Please let me know if CCCn1c(=O)c2[nH]c(C34CC5CC(CC3C5)C4)nc2n(CCC)c1=O [ROLOFYLLINE] shows Population Membrane Permeable-Phenotype (%) below 3%.
A: rule not met

Q: Determine whether this compound shows Population Membrane Permeable-Phenotype (%) lower than 3% (ties excluded): Cc1nc(Cc2cccc(C(F)(F)F)c2)sc1-c1ccc(C(N)=O)nc1 [TP-024n]
A: rule not met

Q: Does the reported Population Membrane Permeable-Phenotype (%) of the following compound sit strictly below 3%? CN(C)CCOc1ccc(-c2nc(-c3ccncc3)c(-c3ccc4c(c3)CC/C4=N\O)[nH]2)cc1 [SB590885]
A: rule not met

Q: State whether 3% exceeds Population Membrane Permeable-Phenotype (%) recorded for O=C(O)c1ccc2cc(-c3ccc(O)c(C45CC6CC(CC(C6)C4)C5)c3)ccc2c1 [O-DEMETHYLATED ADAPALENE] .
A: rule met

Q: Could you please tell me whether Population Membrane Permeable-Phenotype (%) recorded for CNC(=O)c1cc(Oc2ccc(NC(=O)Nc3cc(C(C)(C)C)nn3-c3ccc4ncccc4c3)c(F)c2)ccn1 [REBASTINIB] is less than 3%?
A: rule met

Q: Would you kindly verify if Population Membrane Permeable-Phenotype (%) of c1ccc2oc(-c3csc(C4CCN(Cc5nc6ncccc6[nH]5)CC4)n3)cc2c1 is strictly less than 3%?
A: rule not met

Q: Is the reported Population Membrane Permeable-Phenotype (%) for COc1ccc(NS(=O)(=O)c2sc3ccc(Cl)cc3c2C)cc1N1CCNCC1.Cl strictly below 3%?
A: rule not met

Q: Regarding CN(C)C/C=C/C(=O)Nc1cc2c(Nc3ccc(F)c(Cl)c3)ncnc2cc1O[C@H]1CCOC1.O=C(O)/C=C\C(=O)O.O=C(O)/C=C\C(=O)O [AFATINIB DIMALEATE] , kindly confirm whether its Population Membrane Permeable-Phenotype (%) is beneath 3%.
A: rule not met

Q: Given CCOc1cc(N2CCC(O)CC2)ccc1Nc1ncc2c(n1)N(C1CCCC1)CCC(=O)N2C , is recorded Population Membrane Permeable-Phenotype (%) strictly lower than 3%?
A: rule not met

Q: I wonder whether Nc1nc2c(c(N3CCNCC3)n1)CCC1=C2[C@@H]2CCCC[C@@H]2O1 has Population Membrane Permeable-Phenotype (%) below 3%. Can you tell?
A: rule not met

Q: I'd appreciate it if you could check whether CNc1oc(-c2cccc3ccccc23)nc1C#N has Population Membrane Permeable-Phenotype (%) smaller than 3%.
A: rule met

Q: Is 3% strictly greater than the compound's reported Population Membrane Permeable-Phenotype (%)? compound: Cc1cc2c(cc1N1C(=O)c3cccc4c(CCCO)ccc(c34)C1=O)n(C)c(=O)n2C
A: rule not met

* * *

- System: Fibroblast
- method: Multiplex assay against human fibroblast
- Assay type: toxicity, cell-based
- test_context: 12 h, 10 µM, compound concentration 10 uM, replicate 2
experimental_endpoint: Population Mitotic Cells (%)
Give bare numbers, in %.

• CN(C)CCOc1ccc(-c2nc(-c3ccncc3)c(-c3ccc4c(c3)CC/C4=N\O)[nH]2)cc1 = 0
• Nc1ccc(C(=O)Nc2cccc(-c3nc(N4CCOCC4)c4oc5ncccc5c4n3)c2)cn1 = 48

Hi, could you look up Population Mitotic Cells (%) for each item in my list?
1. CCOc1cc2ncc(C#N)c(Nc3ccc(OCc4cccc(F)c4)c(Cl)c3)c2cc1NC(=O)/C=C/CN(C)C
2. Cc1cc2c(cc1N1C(=O)c3cccc4c(CCCO)ccc(c34)C1=O)n(C)c(=O)n2C
3. CCOc1cc(N2CCC(O)CC2)ccc1Nc1ncc2c(n1)N(C1CCCC1)CCC(=O)N2C
4. CCCn1c(=O)c2[nH]c(C34CC5CC(CC3C5)C4)nc2n(CCC)c1=O
5. CN(C)C/C=C/C(=O)Nc1cc2c(Nc3ccc(F)c(Cl)c3)ncnc2cc1O[C@H]1CCOC1.O=C(O)/C=C\C(=O)O.O=C(O)/C=C\C(=O)O [AFATINIB DIMALEATE]
6. COc1cc2c(NC3CCN(C(C)C)CC3)nc(N3CCC(F)(F)CC3)nc2cc1OCCCN1CCCC1
7. CCC(=O)O[C@]1(C(=O)SCF)[C@H](C)C[C@H]2[C@@H]3C[C@H](F)C4=CC(=O)C=C[C@]4(C)[C@@]3(F)[C@@H](O)C[C@@]21C [FLUTICASONE PROPIONATE]

A:
1: 62; 2: 62; 3: 62; 4: 44; 5: 77; 6: 33; 7: 71

* * *

- Tested on: HEK-293T
- method: Multiplex assay against HEK293T
- Format: toxicity, cell-based
- test_context: human, 12 h, 10 µM, compound concentration 10 uM, replicate 2
Give fulfilled when the value for Population Mitotic Cells (%) is at least 80%. Give not fulfilled when it is less.

The following molecules have reported results that may help.
• CC(C)N1CCC(C)(C)c2cc(C#Cc3ccc(C(=O)O)cc3)ccc21 = fulfilled
• O=C(O)c1ccc2cc(-c3ccc(O)c(C45CC6CC(CC(C6)C4)C5)c3)ccc2c1 [O-DEMETHYLATED ADAPALENE] = fulfilled
• CCC(=O)O[C@]1(C(=O)SCF)[C@H](C)C[C@H]2[C@@H]3C[C@H](F)C4=CC(=O)C=C[C@]4(C)[C@@]3(F)[C@@H](O)C[C@@]21C [FLUTICASONE PROPIONATE] = not fulfilled
• Cc1cc2c(cc1N1C(=O)c3cccc4c(CCCO)ccc(c34)C1=O)n(C)c(=O)n2C = not fulfilled
• c1ccc2oc(-c3csc(C4CCN(Cc5nc6ncccc6[nH]5)CC4)n3)cc2c1 = fulfilled
• CNc1oc(-c2cccc3ccccc23)nc1C#N = not fulfilled

For the next question, use this molecule.
Q: Would you say CC(=O)c1cc(-c2cc(C(=O)NC3CC3)ccc2C)c2ncccn12 shows Population Mitotic Cells (%) at minimum 80%?
A: not fulfilled

* * *

Would you kindly list Total Cell Count for each of these molecules?
- Test system: U2OS
- method: Multiplex assay against U2OS
- Assay type: toxicity, cell-based
- test_context: human, 48 h, 10 µM, compound concentration 10 uM, replicate 1
One number for each entry.

* Cl.Cl.Nc1ncnc2c1c(-c1cccc(OCc3ccccc3)c1)cn2[C@H]1C[C@@H](CN2CCC2)C1 | 203
* Nc1ccc(C(=O)Nc2cccc(-c3nc(N4CCOCC4)c4oc5ncccc5c4n3)c2)cn1 | 244

Consider the record given below.
Q: Total Cell Count of CCc1cc2c(cc1CC)CC(NC[C@H](O)c1ccc(O)c3[nH]c(=O)ccc13)C2 on U2OS?
A: 239

* * *

- Tested on: Fibroblast
- method: Multiplex assay against human fibroblast
- Format: toxicity, cell-based
- test_context: 24 h, 1 µM, compound concentration 1 uM, replicate 2
experimental_endpoint: Total Cell Count
Give bare numbers.

Recorded Total Cell Count, per entry:
- CCC(=O)O[C@]1(C(=O)SCF)[C@H](C)C[C@H]2[C@@H]3C[C@H](F)C4=CC(=O)C=C[C@]4(C)[C@@]3(F)[C@@H](O)C[C@@]21C [FLUTICASONE PROPIONATE]: 78
- CC(C)Oc1ccc(C(=O)N[C@H](CNC(=O)CN(C)C)Cc2ccc(-c3cn4cccc([C@H](C)O)c4n3)cc2)cc1Cl [GSK-923295A]: 79
- CCc1cc2c(cc1CC)CC(NC[C@H](O)c1ccc(O)c3[nH]c(=O)ccc13)C2: 73
- CC(=O)c1cc(-c2cc(C(=O)NC3CC3)ccc2C)c2ncccn12: 70
- Nc1ccc(C(=O)Nc2cccc(-c3nc(N4CCOCC4)c4oc5ncccc5c4n3)c2)cn1: 57

I have 4 compounds here; please give me Total Cell Count for each one.
1. CC(C)N1CCC(C)(C)c2cc(C#Cc3ccc(C(=O)O)cc3)ccc21
2. CNc1oc(-c2cccc3ccccc23)nc1C#N
3. COc1ccc(NS(=O)(=O)c2sc3ccc(Cl)cc3c2C)cc1N1CCNCC1.Cl
4. Nc1nc2c(c(N3CCNCC3)n1)CCC1=C2[C@@H]2CCCC[C@@H]2O1

A:
1. 81
2. 113
3. 67
4. 82

* * *

- Test system: U2OS
- method: Multiplex assay against U2OS
- Assay type: toxicity, cell-based
- test_context: human, 24 h, 1 µM, compound concentration 1 uM, replicate 1
Classify: 1 when Population Fragmented Nuclei (%) is strictly less than 6%; -1 when Population Fragmented Nuclei (%) is not.

- COc1cc2c(Nc3ccc(NC(=O)c4ccccc4)cc3)ncnc2cc1OCCCN1CCOCC1: -1

Q: Quick check: does CC(=O)c1cc(-c2cc(C(=O)NC3CC3)ccc2C)c2ncccn12 have Population Fragmented Nuclei (%) under 6%?
A: 1

Q: Does this molecule meet the criterion Population Fragmented Nuclei (%) < 6%? CC(=O)O[C@H]1C(=O)[C@@]2(C)[C@H]([C@H](OC(=O)c3ccccc3)[C@]3(O)C[C@H](OC(=O)[C@H](O)[C@@H](NC(=O)c4ccccc4)c4ccccc4)C(C)=C1C3(C)C)[C@]1(OC(C)=O)CO[C@@H]1C[C@@H]2O
A: 1

Q: Regarding CCc1cc2c(cc1CC)CC(NC[C@H](O)c1ccc(O)c3[nH]c(=O)ccc13)C2 , kindly confirm whether its Population Fragmented Nuclei (%) is beneath 6%.
A: -1

Q: Please let me know if CCn1c(-c2nonc2N)nc2cnc(Oc3cccc(NC(=O)c4ccc(OCCN5CCOCC5)cc4)c3)cc21 [GSK-269962A] shows Population Fragmented Nuclei (%) below 6%.
A: -1

Q: Problem: For the molecule CN(C)CCOc1ccc(-c2nc(-c3ccncc3)c(-c3ccc4c(c3)CC/C4=N\O)[nH]2)cc1 , is Population Fragmented Nuclei (%) under 6%?
A: -1

Values were extracted from ChEMBL document CHEMBL4689842.
